Molecular target: Nuclear factor erythroid 2-related factor 2 (Rattus norvegicus) (UniProt O54968)
Sequence (whole entry): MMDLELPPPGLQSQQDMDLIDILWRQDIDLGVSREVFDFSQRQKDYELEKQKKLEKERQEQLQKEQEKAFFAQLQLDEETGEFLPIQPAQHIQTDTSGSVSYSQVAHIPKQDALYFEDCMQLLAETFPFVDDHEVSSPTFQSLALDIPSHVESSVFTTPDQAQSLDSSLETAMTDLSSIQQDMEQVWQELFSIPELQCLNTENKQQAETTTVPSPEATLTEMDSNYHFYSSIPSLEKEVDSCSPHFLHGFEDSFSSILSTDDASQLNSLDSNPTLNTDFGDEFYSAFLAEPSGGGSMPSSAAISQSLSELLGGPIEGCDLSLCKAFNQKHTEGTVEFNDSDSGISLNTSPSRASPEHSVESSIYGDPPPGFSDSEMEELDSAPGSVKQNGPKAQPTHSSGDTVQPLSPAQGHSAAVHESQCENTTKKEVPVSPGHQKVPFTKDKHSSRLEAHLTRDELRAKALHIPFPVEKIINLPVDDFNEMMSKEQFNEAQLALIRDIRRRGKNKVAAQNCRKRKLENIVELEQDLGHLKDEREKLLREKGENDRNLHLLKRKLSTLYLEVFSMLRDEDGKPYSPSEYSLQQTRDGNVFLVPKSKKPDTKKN
Test: Induction of NRF2 activation in rat H42E cells expressing ARE8L assessed as reporter transgene activity after 24 hrs by luminescence assay
Type: cell-based
measure: CD (µM)

Example entries and their recorded answers appear below.
• COC(=O)[C@]12CCC(C)(C)C[C@H]1[C@H]1C(=O)C=C3[C@@]4(C)C=CC(=O)C(C)(C)[C@@H]4CC[C@@]3(C)[C@]1(C)CC2 = 0.9
• COC(=O)[C@]12CCC(C)(C)C[C@H]1[C@H]1C(=O)C=C3[C@@]4(C)CC(C#N)C(=O)C(C)(C)[C@@H]4CC[C@@]3(C)[C@]1(C)CC2 (some centres not stated) = 0.009
• COC(=O)[C@]12CCC(C)(C)C[C@H]1[C@H]1C(=O)C=C3[C@@]4(C)CC[C@H](OC(C)=O)C(C)(C)[C@@H]4CC[C@@]3(C)[C@]1(C)CC2 = 17.6

[I] COC(=O)[C@]12CCC(C)(C)C[C@H]1[C@H]1C(=O)C=C3[C@@]4(C)[C@H]5O[C@H]5C(=O)C(C)(C)[C@@H]4CC[C@@]3(C)[C@]1(C)CC2
[II] COC(=O)[C@]12CCC(C)(C)C[C@H]1[C@H]1C(=O)C=C3[C@@]4(C)[C@H]5O[C@@]5(C#N)C(=O)C(C)(C)[C@@H]4CC[C@@]3(C)[C@]1(C)CC2
[III] COC(=O)[C@]12CCC(C)(C)C[C@H]1[C@H]1C(=O)C=C3[C@@]4(C)C=C(C#N)C(=O)C(C)(C)[C@@H]4CC[C@@]3(C)[C@]1(C)CC2 [BARDOXOLONE METHYL]
[IV] COC(=O)[C@]12CCC(C)(C)C[C@H]1[C@H]1C(=O)C=C3[C@@]4(C)CCC(=O)C(C)(C)[C@@H]4CC[C@@]3(C)[C@]1(C)CC2
# rank by CD, ascending (min first) // format: requested-order list of labels
III, II, IV, I
